Target: T1, cynomolgus monkey 5T4 antigen (cynomolgus monkey, UniProt Q4R8Y9 35-420)
T1 construct: whole, on cells; also called cyno 5T4
T1 sequence (looked up): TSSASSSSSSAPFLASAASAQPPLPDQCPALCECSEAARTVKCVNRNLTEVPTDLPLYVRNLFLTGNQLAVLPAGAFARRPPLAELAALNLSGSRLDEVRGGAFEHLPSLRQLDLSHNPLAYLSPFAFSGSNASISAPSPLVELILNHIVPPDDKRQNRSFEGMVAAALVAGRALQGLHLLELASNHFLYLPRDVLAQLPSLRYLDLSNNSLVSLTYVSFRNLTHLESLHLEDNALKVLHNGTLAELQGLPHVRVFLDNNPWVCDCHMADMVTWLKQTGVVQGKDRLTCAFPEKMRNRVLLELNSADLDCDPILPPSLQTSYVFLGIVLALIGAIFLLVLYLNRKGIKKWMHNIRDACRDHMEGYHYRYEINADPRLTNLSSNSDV
Experiment: flow cytometry, CHOZN cells expressing cyno 5T4
Catalogue of EC50 values
Field format: number, assumed µg/mL, no unit text.

humanized anti-5T4 antibody 825c with HC-41C mutation (antibody, human IgG1, kappa, V domains shown) VH: EVQLEESGGGLVKPGGSLRLSCAASGIDLSSYGMGWVRQACGKGLEWVSIISRNSVTYYATWAKGRFTISRDNSKNTLYLQMNSLRAEDTAVYYCARRATYSGALGYFDIWGRGTLVTVSS VL: GYDMTQSPSSVSASVGDRVTITCQASENIYSTLAWYQQKPGKAPKLLIYDAFDLASGVPSRFKGSGSGTEYTLTISSLQPEDFATYYCQQGYSGTNVDNAFGGGTKVEIKR
0.42

Now for a further binder.
Task item: Need EC50 of humanized anti-5T4 antibody 789a with HC-41C mutation (antibody, V domains shown) VH: EVKVEESGGGLVQPGGSLRLSCAASGFSLSSYWMSWVRQACGKGLEWVSIIAGRGSTYYASWAKGRFTISKDNSEGMVYLQMNSLRAEDTAVYYCARVSSIYYTFNLWGQGTTVTVSS VL: EIVLTQSPSSLSASVGDRVTITCQSSQSVYSNNELSWYQQKPGKAPKLLIYYASTLASGVPSRFSGSGSGTDFTLTISSLQPEDFATYYCQGSYYSGSGWYYAFGQGTKLEIKR , thanks.
Reply: 0.33
